Test system: SR leukemia
Assay: NCI-60 one-dose screen, 48 h (100 = growth as untreated, 0 = no growth, -100 = all killed)
Conditions: 10 µM unless noted
This is part of a sample that, as a whole, favours compounds with a hit. Of some 83,000 tested, about 20% had one in any assay. The source made the active and inactive calls. The calls were made as follows: active = growth percent below 10; inactive = the rest.
value kind: growth

[
  {
    "molecule": "O=C1NC(=C(Cl)Cl)/C(=N/S(=O)(=O)N2CCC(C3(C(F)(F)F)N=N3)CC2)N1",
    "growth": "13.3% (inactive)"
  },
  {
    "molecule": "O=S(=O)(c1ccc(OCCO)cc1)c1ccc(OCCO)cc1",
    "growth": "99.4% (inactive)"
  },
  {
    "molecule": "O=C1NN(C(=O)c2ccc(Cl)cc2)C(c2ccccc2)=N/C1=C\\c1ccc(F)cc1",
    "growth": "80.2% (inactive)"
  },
  {
    "molecule": "CC(C)CC1NC(C)(C)CO1 (stereo not given)",
    "growth": "124% (inactive)"
  },
  {
    "molecule": "COc1cc(NC(N)=NCCC(C)(C)Oc2ccc(C(F)(F)F)cc2)ncc1C#N",
    "growth": "-54.9% (active)"
  }
]

The reported value for CC(C)(C)c1[nH]nc2c1C(c1cc3ccccc3[nH]c1=O)Nc1cc(C(=O)Nc3ccc(Cl)cc3)ccc1N2 (stereo not given) in terms of growth is 65.4% (inactive)

The reported value for Cc1cc(C2=NNC(=O)Cc3cc4c(cc32)OCCO4)cc(C)c1N in terms of growth is 27.5% (inactive)

The reported value for CCN(CC)c1ccc(N=O)cc1 in terms of growth is 26.5% (inactive)

The reported value for C=C1CCC2C(C)(CO)C(O)CCC2(C)C1CC(NCc1ccccc1)C1=CCOC1=O (stereo not given) in terms of growth is 99.8% (inactive)

The reported value for COc1ccc(Nc2nc(N)nc3c2CCN(Cc2ccc(OC)cc2OC)C3=O)cc1 in terms of growth is 60.2% (inactive)

---

Test system: DU-145 prostate
Assay: NCI-60 one-dose screen, 48 h
Settings: 10 µM unless noted
This is part of a sample that, as a whole, favours compounds with a hit. Of some 83,000 tested, about 20% had one in any assay. The source made the active and inactive calls. Rule for the calls: active = growth percent below 10; inactive = the rest.
Response enum: true (1) for active, false (0) for inactive

[
  {
    "molecule": "Cc1nc2ncccc2nc1Nc1ccc(S(=O)(=O)Nc2cncs2)cc1",
    "class assignment": "false (0)"
  },
  {
    "molecule": "NNc1cccc(/C=C/c2ccccc2)cc1=O",
    "class assignment": "false (0)"
  },
  {
    "molecule": "N=c1ccc2nc3ccc(N)cc3sc-2c1",
    "class assignment": "false (0)"
  },
  {
    "molecule": "CC[N+](CC)=c1cc2oc3cc(N(C)C)ccc3nc-2cc1C",
    "class assignment": "false (0)"
  },
  {
    "molecule": "CCOC(=O)c1ccc2c(c1)nc(-c1ccc(OCc3ccccc3)c(OC)c1)n2-c1cc(C(C)(C)C)[nH]n1",
    "class assignment": "false (0)"
  }
]

# input // param item: Cc1csc(NC(c2ccc(Br)cc2)c2c(C)nc3ccccn23)n1 (stereo not given) ; yields the recorded call
# output false (0)

# input // param item: O=C1NC(=C(Cl)Cl)/C(=N/S(=O)(=O)N2CCC(C3(C(F)(F)F)N=N3)CC2)N1 ; yields the recorded call
# output false (0)

# input // param item: COc1ccc(Nc2nc(N)nc3c2CCN(Cc2ccc(OC)cc2OC)C3=O)cc1 ; yields the recorded call
# output false (0)

# input // param item: COc1cc(-c2nn(-c3cccc(NC(=O)c4cccc(C(F)(F)F)c4)c3)cc2-c2ccncc2)ccc1Cl ; yields the recorded call
# output true (1)

# input // param item: COc1cc2c(cc1O)CCN1C[C@@H](CC(C)C)[C@@H](O)C[C@@H]21 ; yields the recorded call
# output false (0)

---

Test system: SK-MEL-5 melanoma
Experiment: NCI-60 one-dose screen, 48 h
Details: 10 µM unless noted
About 83,000 compounds went through this panel and 20% of them were active in at least one assay; those are over-represented in the sample as a whole. Activity calls are given as the source filed them. How the source made its calls: active means growth percent below 10; inactive means the rest.
Response enum: active, inactive

Known results for compounds:
[
  {
    "compound": "CSc1nc2c(c(=O)[nH]1)C(c1ccc(C)cc1)C=C(C(=O)O)N2 (stereo unspecified)",
    "target": "SK-MEL-5 melanoma",
    "class assignment": "inactive"
  },
  {
    "compound": "CCOC(=O)c1ccc(NC(=O)N2CC(C)OC(C)C2)cc1 (stereo unspecified)",
    "target": "SK-MEL-5 melanoma",
    "class assignment": "inactive"
  },
  {
    "compound": "COc1ccc2c(c1)OC1=C(C(=O)OC1)C2c1cc(OC)c2c(c1)OCO2 (stereo unspecified)",
    "target": "SK-MEL-5 melanoma",
    "class assignment": "active"
  },
  {
    "compound": "NC1=NN(O)C2=CC([N+](=O)[O-])C=CC2=N1 (stereo unspecified)",
    "target": "SK-MEL-5 melanoma",
    "class assignment": "inactive"
  },
  {
    "compound": "O=C1NN(C(=O)c2ccc(Cl)cc2)C(c2ccccc2)=N/C1=C\\c1ccc(F)cc1",
    "target": "SK-MEL-5 melanoma",
    "class assignment": "inactive"
  }
]

# input // param item: COc1ccc(-c2cnnn2-c2nonc2-n2cccc2)cc1OC ; yields the recorded call
# output inactive

---

Test system: A549/ATCC NSCLC
Experiment: NCI-60 one-dose screen, 48 h
Conditions: 10 µM unless noted
The panel holds about 83,000 compounds, 20% with a hit somewhere; the sample as a whole holds those more often. The source made the active and inactive calls. How the source made its calls: active means growth percent below 10; inactive means the rest.
Response enum: active, inactive

Known results for compounds:
[
  {
    "compound": "COc1cc(C2CC(c3ccc4c(c3)OCO4)=NN2C(C)=O)cc(OC)c1OC (stereo unspecified)",
    "class assignment": "inactive"
  },
  {
    "compound": "CCOc1cc2c(Cl)ncnc2c(OCC)c1OCC",
    "class assignment": "inactive"
  },
  {
    "compound": "COc1cc(-c2nn(-c3cccc(NC(=O)c4ccccc4)c3)cc2-c2ccncc2)ccc1Cl",
    "class assignment": "active"
  },
  {
    "compound": "NC(N)=N/N=C/c1ccc(-c2ccc(-c3cc(Cl)cc(Cl)c3)s2)cc1",
    "class assignment": "active"
  }
]

# input // param item: N=C(N)c1ccc(-c2ccc(-c3ccc(-c4cccs4)s3)s2)cc1 ; yields the recorded call
# output inactive

# input // param item: ClC(Cl)c1nc(-c2cccnc2)n2nc(-c3ccccc3)cc2n1 ; yields the recorded call
# output active

# input // param item: CN(C[C@H]1Cc2c(cccc2N2CCN(Cc3ccccn3)CC2)CN1)[C@H]1CCCc2cccnc21 ; yields the recorded call
# output inactive

# input // param item: CCCCCCCC/C=C/CCCCCCCC1=NC(C)(C)CN1C(C)(C)CO ; yields the recorded call
# output inactive

---

Tested on: RPMI-8226 leukemia
Assay: NCI-60 one-dose screen, 48 h (100 = growth as untreated, 0 = no growth, -100 = all killed)
Conditions: 10 µM unless noted
This is part of a sample that, as a whole, favours compounds with a hit. Of some 83,000 tested, about 20% had one in any assay.
Listed molecules paired with reported growth
Kindly answer with a numeric value in %, unit omitted.

Some solved entries appear below for comparison.
[
  {
    "molecule": "COc1ccc(/C=C2\\CN(Cc3cn(CCNc4ccnc5cc(Cl)ccc45)nn3)C/C(=C\\c3ccc(OC)c(OC)c3)C2=O)cc1OC",
    "growth, %": -1.73
  },
  {
    "molecule": "O=C(c1ccccc1)c1c(/C=C/c2ccccc2)c2ccccc2[nH]c1=O",
    "growth, %": 94.6
  },
  {
    "molecule": "COc1ccc(OC)c(C2OC(c3ccc4ccccc4c3O)=NN2C(C)=O)c1 (stereo not given)",
    "growth, %": 66.6
  },
  {
    "molecule": "C=C[C@@H]1C[C@@H]2Cc3c(C)cc(C)cc3N1O2",
    "growth, %": 74.7
  }
]

Next up:
Hey, RPMI-8226 leukemia data for NC(=S)N/N=C(/CCN1CCCC1)CC(C1=C(O)C2=CCCCC2OC1=O)c1ccccc1 (stereo not given) : growth came out at 73.9

---

Tested on: OVCAR-8 ovarian
Assay: NCI-60 one-dose screen, 48 h (100 = growth as untreated, 0 = no growth, -100 = all killed)
Conditions: 10 µM unless noted
The panel holds about 83,000 compounds, 20% with a hit somewhere; the sample as a whole holds those more often.
value kind: growth (%)
Kindly answer with a numeric value in %, unit omitted.

[
  {
    "compound": "NC(=S)N/N=C(/CCN1CCCC1)CC(C1=C(O)C2=CCCCC2OC1=O)c1ccccc1 (stereo not given)",
    "growth, %": 88.2
  },
  {
    "compound": "O=S(=O)(NCCNc1nccc(-c2c(-c3ccc(O)cc3)nc3sccn23)n1)c1cccc2ccccc12",
    "growth, %": 95.4
  },
  {
    "compound": "CN(C[C@H]1Cc2c(cccc2N2CCN(Cc3ccccn3)CC2)CN1)[C@H]1CCCc2cccnc21",
    "growth, %": 42.7
  },
  {
    "compound": "C=C[C@@H]1C[C@H](O)Cc2c(C)cc(C)cc2N1",
    "growth, %": 98.5
  },
  {
    "compound": "NC(N)=N/N=C/c1ccc(-c2ccc(-c3cc(Cl)cc(Cl)c3)s2)cc1",
    "growth, %": 33.1
  },
  {
    "compound": "O=C(C1=Cc2cc3ccccc3n2Cc2cnnn21)c1ccccc1",
    "growth, %": 51.8
  },
  {
    "compound": "O=C(O)COc1ccc(-c2cssc2=S)cc1",
    "growth, %": 101
  },
  {
    "compound": "O=[N+]([O-])c1ccc(/C=C/C2(CCl)OCCO2)cc1",
    "growth, %": 82.4
  }
]

The reported value for CCCCC(CC)OC(=O)C(Br)CC (stereo not given) in terms of growth is 101

The reported value for CCC1=CCC[C@@]2(C)CCC[C@@]3(C)CCCC(C)(C)[C@]1([O-])[O+]32 in terms of growth is 104
